- Test system: SK-OV-3 ovarian
- EXPERIMENTAL DETAILS: NCI-60 one-dose screen, 48 h
- PROTOCOL CONDITIONS: 10 µM unless noted
The panel holds about 83,000 compounds, 20% with a hit somewhere; the sample as a whole holds those more often. Calls of active or inactive are those of the source. How the source made its calls: active means growth percent below 10; inactive means the rest.
# output must be one of active, inactive

{"MOLECULE": "CCOc1cccc(/C=N\\Nc2nc(=O)cc(C(=O)OC)s2)c1O", "ASSIGNED CATEGORY": "inactive"}

Per the assay record, what outcome was assigned to COc1ccc(C2C3=C(COC3=O)N(CCO)c3cc4c(cc32)CCC4)cc1OC (stereo not drawn) ?
inactive

Per the assay record, what outcome was assigned to `CC/C=C\C[C@H](O)C/C=C1/C(=O)C=C[C@@H]1C/C=C\CCCC(=O)OCCS(=O)(=O)c1ccccc1` ?
inactive

Per the assay record, what outcome was assigned to `O=c1oc2ccc(Br)cc2c(=O)n1-c1ccc(Cl)cc1F` ?
active

Per the assay record, what outcome was assigned to `O=C(c1ccccc1)N(C(=S)NCCc1ccc(Cl)cc1)c1ccc(Cl)cc1` ?
inactive

Per the assay record, what outcome was assigned to `CN1CCN(Cc2ccc(C(=O)Nc3cncc(C#Cc4cnc5cccnn45)c3)cc2C(F)(F)F)CC1` ?
inactive

Per the assay record, what outcome was assigned to `COc1ccc(N(C)c2nc(N)nc3sc4c(c23)CCCC4)cc1` ?
inactive

Per the assay record, what outcome was assigned to `Cc1ccc(F)cc1NC(=O)c1cc(Cl)ccc1Nc1ccccc1` ?
inactive

Per the assay record, what outcome was assigned to `COc1ccc(/C=C/C(=O)c2c(C)nc3ccccc3c2/C=C/c2ccccc2)c(OC)c1` ?
inactive
